target: human CD33 R190A (human, UniProt P20138 18-364); test: alanine scan, flow cytometry, HEK293-T;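 note: antibody binding to each alanine-substituted CD33 mutant expressed transiently in HEK293-T, read as fluorescence minus background, mean of duplicates, relative to wild-type CD33 set as 100%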
Sequence (P20138 18-364 R190A limits assumed): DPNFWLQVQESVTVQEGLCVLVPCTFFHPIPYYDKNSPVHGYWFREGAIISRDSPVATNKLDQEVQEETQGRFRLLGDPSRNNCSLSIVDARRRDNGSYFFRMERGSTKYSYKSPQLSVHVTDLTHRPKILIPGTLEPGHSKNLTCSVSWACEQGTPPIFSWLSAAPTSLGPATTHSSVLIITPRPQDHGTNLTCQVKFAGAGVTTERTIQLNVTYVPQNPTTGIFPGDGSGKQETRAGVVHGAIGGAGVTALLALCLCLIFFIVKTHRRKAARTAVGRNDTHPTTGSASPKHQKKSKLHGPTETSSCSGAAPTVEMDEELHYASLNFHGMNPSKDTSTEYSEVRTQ
ASSAY READOUT: Mean % WT Binding

Can you look up the measured Mean % WT Binding of Refmab #4 (antibody, V domains shown, In the alanine scan antibodies were used as IgG or Fab) VH: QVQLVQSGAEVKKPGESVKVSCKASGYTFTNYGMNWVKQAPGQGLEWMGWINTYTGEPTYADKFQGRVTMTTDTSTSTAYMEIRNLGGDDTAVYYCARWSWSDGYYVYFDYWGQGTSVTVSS VL: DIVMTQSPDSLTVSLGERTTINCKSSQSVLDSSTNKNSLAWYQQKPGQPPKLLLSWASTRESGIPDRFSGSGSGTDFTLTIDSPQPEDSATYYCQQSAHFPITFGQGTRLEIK for me?
109%
